System: HLA-A*02:17
Assay Info: IEDB peptide-MHC binding, purified MHC/competitive/radioactivity; filed as Kd, often an IC50 or EC50 that approximates it; bounds were set here for any values at or beyond the usual limits of such assays
Assay Conditions: source organism: Dengue virus 1 Nauru/West Pac/1974
Property: pKd
pKd is defined as minus the log10 of a concentration measured in mol/L.

query: Which measured pKd value corresponds to LLFKTSAGV ?
result: 6.90

* * *

System: HLA-A*24:02
Assay Info: IEDB peptide-MHC binding, purified MHC/competitive/radioactivity; filed as Kd, often an IC50 or EC50 that approximates it; bounds were set here for any values at or beyond the usual limits of such assays
Assay Conditions: source organism: Mammarenavirus machupoense
Property: Kd

query: Short answer please: Kd, HLA-A*24:02, entry CGDPSSFEY
result: ≥ 64.1 µM

* * *

System: HLA-A*30:01
Assay Info: IEDB peptide-MHC binding, purified MHC/competitive/radioactivity; filed as Kd, often an IC50 or EC50 that approximates it; bounds were set here for any values at or beyond the usual limits of such assays
Assay Conditions: source organism: Mammarenavirus machupoense
Property: Kd

query: Which measured Kd value corresponds to SIQKNTIFK ?
result: 62.6 nM

* * *

System: HLA-B*57:01
Assay Info: IEDB peptide-MHC binding, purified MHC/direct/fluorescence; filed as Kd, often an IC50 or EC50 that approximates it; bounds were set here for any values at or beyond the usual limits of such assays
Assay Conditions: source organism: Rickettsia felis
Property: pKd
pKd is defined as minus the log10 of a concentration measured in mol/L.

query: Short answer please: pKd, HLA-B*57:01, entry GSFKEYVFW
result: 6.78

* * *

System: HLA-A*03:01
Assay Info: IEDB peptide-MHC binding, purified MHC/direct/fluorescence; filed as Kd, often an IC50 or EC50 that approximates it; bounds were set here for any values at or beyond the usual limits of such assays
Assay Conditions: source organism: Sudan ebolavirus
pKd: −log10 of the molar value.
Property: pKd

query: Which measured pKd value corresponds to YTENTSSYY ?
result: ≤ 4.70

* * *

System: HLA-B*08:01
Assay Info: IEDB peptide-MHC binding, purified MHC/direct/fluorescence; filed as Kd, often an IC50 or EC50 that approximates it; bounds were set here for any values at or beyond the usual limits of such assays
Assay Conditions: source organism: Variola virus
Property: Kd

query: Which measured Kd value corresponds to TESDAIRTL ?
result: ≥ 20 µM

* * *

System: HLA-A*03:01
Assay Info: IEDB peptide-MHC binding, purified MHC/direct/fluorescence; filed as Kd, often an IC50 or EC50 that approximates it; bounds were set here for any values at or beyond the usual limits of such assays
Assay Conditions: source organism: Entamoeba histolytica HM-1:IMSS
pKd: −log10 of the molar value.
Property: pKd

query: Which measured pKd value corresponds to WYKVFVPRR ?
result: ≤ 4.70

* * *

System: HLA-B*45:01
Assay Info: IEDB peptide-MHC binding, purified MHC/competitive/radioactivity; filed as Kd, often an IC50 or EC50 that approximates it; bounds were set here for any values at or beyond the usual limits of such assays
Assay Conditions: source organism: Mammarenavirus machupoense
Property: pKd
pKd is defined as minus the log10 of a concentration measured in mol/L.

AENVIVGLV :: 8.47

Now take the following sequence into account.
query: Which measured pKd value corresponds to QEKAPDVGEL ?
result: 5.15
